Reference source for all entries: ChEMBL document CHEMBL5674860

tested on: Colon cancer organoid; assay: Optimized Dual-Glo assay to identify co-culture induced drug vulnerabilities using donated chemical probes and chemogenomics kinase set in O06 CRC organoid and F06 CAF mono and co-culture. […] Cell viability is reported both mono and co-culture models.; type: functional, Homo sapiens; parameters: dose or concentration left out as unconfirmed; conditions: Culture type Co-Culture; Transduced with Renilla-dsRed lentivirus
readout-label: Cell Viability (%)
Write it as a number; the unit % goes unstated.

Some compounds with recorded Cell Viability:
compound=CC1=C(C)C(=O)C(C(C)(C)CC(=O)N(CCCCSC[C@H]2O[C@@H](n3cnc4c(N)ncnc43)[C@@H]3OC(C)(C)O[C@@H]32)Cc2cccc(-c3ccc(Cl)cc3)c2)=C(C)C1=O unit=% data_value=129.013
compound="O=C(Nc1cnc(Oc2ccc(F)cc2)nc1)N1CCc2ncccc2[C@@H]1c1ccc(F)cc1 [BAY-899]" unit=% data_value=100.101
compound="Cc1nc(NC(=O)N2CCC[C@H]2C(N)=O)sc1-c1ccnc(C(C)(C)C(F)(F)F)c1 [ALPELISIB]" unit=% data_value=68.5217
compound="COc1ccc2c(c1)O[C@H](c1ccc(OC)c(OC)c1)C[C@@H]2NC(=O)C1(c2ccc3c(c2)OC(F)(F)O3)CC1 [A-1596584]" unit=% data_value=88.6658
compound="Cc1cc(F)c(C(=O)Nc2cccc(-c3nncn3C(C)C)n2)cc1-n1cnc(C2CC2)c1 [SELONSERTIB]" unit=% data_value=105.018

What Cell Viability value was documented for this compound, COc1cc2ncn(-c3cc(OCc4ccccc4C(F)(F)F)c(C(N)=O)s3)c2cc1OC [GW843682X] ?
182.458

Would you kindly share the measured Cell Viability for `Cc1cc2c(cc1N1C(=O)c3cccc4c(CCCO)ccc(c34)C1=O)n(C)c(=O)n2C` ?
164.269

Returns the measured Cell Viability for the input compound. Input: `O=C(NC[C@H](O)CN1CCc2ccccc2C1)c1ccnc(NC2CCC2)c1`
110.399

For the compound shown here, O=C(NNS(=O)(=O)c1ccccc1)c1cc(-c2ccnnc2)ccc1F [WM-2474] , give the reported Cell Viability.
93.3483

Which value of Cell Viability has been reported for `O=C(O)CNC(=O)c1c(O)c2ccccc2n(Cc2ccccc2)c1=O` in the records?
124.036

I'd like to know its Cell Viability. The compound in question is C[C@H](c1ccnc(Nc2nc3ccc(-c4cc(N(C)C)ncn4)cc3[nH]2)c1)N1CCN(C(=O)CC(F)(F)F)CC1 [BAY-985]
180.071

Would you kindly share the measured Cell Viability for `Cc1cccc(-c2cnc3occ(-c4ccc(C(=O)O)c(C5CCCC5)c4)c3c2)c1` ?
61.5637

Would you mind telling me what Cell Viability value was observed for `CN(C)C(=O)/C(C#N)=C/c1ccc(-c2nc3cnc4[nH]ccc4c3n2C2CCCCC2)o1` ?
96.9669

Look at this compound and give its reported Cell Viability. `COc1cc(-c2cn([C@H]3CCc4c(F)cccc4N(CC(F)(F)F)C3=O)nn2)ccc1-n1cnc(C)c1`
118.336

Given the entry `Cc1ccc(NC(=O)Nc2cc(C(F)(F)F)ccc2F)cc1Nc1ccc2c(c1)NC(=O)/C2=C\c1ccc[nH]1` , report its measured Cell Viability.
121.077

Returns the measured Cell Viability for the input compound. Input: `CCCOc1ccn2c(C(C)=O)cc(-c3cccc(OC)c3)c2c1`
146.669

Look up Cell Viability for this compound: `Cc1nc(N2CC[C@H](O)C2)ncc1-c1cc(C(F)(F)F)cc2[nH]ncc12`
161.788
